# TESTED TARGET: Follistatin (Homo sapiens)
# EXPERIMENT DESCRIPTION: follistatin binders on small-molecule microarrays, primary screen, biochemical, small-molecule microarray, 635/667 nm fluorescence (AID 1132)
# CONDITION DESCRIPTION: FST binding, 635 nm fluorescence, higher = more signal
MEASUREMENT LABEL: composite z-score
Hey, just send me the number, nothing else.

**Q:** What value of measured composite z-score is listed for C=CCOC(=O)[C@@H]1[C@H]2C(=O)O[C@H](c3ccccc3)[C@H](c3ccccc3)N2[C@H](c2ccc(OCCOC(=O)[C@H]3C[C@H]4C(=O)N[C@@H](CCCC[N+](C)(C)C)C(=O)N4[C@H]3c3ccc(O)cc3)cc2)[C@@]12C(=O)Nc1ccc(I)cc12 ?
**A:** 1.4

**Q:** Thanks! And COC(=O)C[C@H]1O[C@]2(C(=O)N(C)c3ccccc32)[C@@H](C)[C@@H]1[Si](C)(C)c1ccc(C)cc1 ?
**A:** 0.498

**Q:** Consider next the compound O=C1c2ccccc2[C@](Cc2ccccc2I)(C(=O)NCc2ccccc2)[C@H](c2ccc(CO)cc2)N1C1CCCCC1 in the same way.
**A:** 1.54

**Q:** Another compound to check: COc1c(C)cc(-c2cc3c(c(-c4ccccc4)n2)[Si](C(C)C)(C(C)C)OC3)cc1C
**A:** 0.134

**Q:** Thanks! And O=C1OC[C@@H](c2ccccc2)N2CC(/C=C/c3ccccc3)=CC12 (some centres undefined) ?
**A:** -1.29

**Q:** Same for CN(C)C(=O)[C@]1(CCC(=O)OC(C)(C)C)N=C(c2ccc(OCCCO)cc2)O[C@@H]1c1ccccc1
**A:** 0.562

**Q:** Do the same for [N-]=[N+]=NCc1ccccc1C[C@@]1(C(=O)NCCN2CCOCC2)N=C(c2ccc(OCCCO)cc2)O[C@@H]1c1ccccc1N=[N+]=[N-] please
**A:** 0.423

**Q:** Input CN1C(=O)[C@@]2(CCS(=O)(=O)c3ccccc3)N=C(c3ccc(OCCCO)cc3)O[C@H]2c2ccccc21
**A:** 1.29

**Q:** Next up: [N-]=[N+]=Nc1ccccc1[C@H]1OC(c2ccc(OCCCO)cc2)=N[C@@]1(CCS(=O)(=O)c1ccccc1)C(=O)N1CCCCC1
**A:** 0.83

**Q:** And what about the compound COC(=O)[C@@]1(Cc2ccc(F)cc2)[C@H]2c3cc(C(=O)N4CCCC4)n(CCF)c3C[C@H]2CN1C(=O)c1ccccc1 ?
**A:** 0.088

**Q:** Check CO[C@H]1O[C@H](CO)[C@@H](OC(=O)c2ccc(Br)cc2)[C@@H]2OC(=O)[C@@H](Cc3ccc4ccccc4c3)C/C=C/C[C@H](Cc3ccc4ccccc4c3)C(=O)O[C@@H]12 too.
**A:** 0.395

**Q:** What would you report for CC(C)N1CC=CC23O[C@@H]4C=CCOC(=O)[C@@H]4[C@H]2C(=O)N(C(C)CO)[C@@H]3C1=O (some centres undefined) ?
**A:** -0.901

**Q:** Now the same for COCCCNC(=O)[C@]1(CCC(=O)OC(C)(C)C)N=C(c2ccc(OCCCO)cc2)O[C@@H]1c1ccccc1
**A:** 1.21

**Q:** What would you report for [N-]=[N+]=NCc1ccccc1[C@H]1OC(c2ccc(OCCCO)cc2)=N[C@@]1(CCS(=O)(=O)c1ccccc1)C(N)=O ?
**A:** 1.18
